molecular target: Cytochrome P450 1A2 (Homo sapiens); assay: Cytochrome panel assay with activity outcomes; conditions: recombinant CYP, pro-luciferin dealkylation, luminescence, p450-cyp1a2; series mostly up to 57.1 µM
The whole screen tested about 16,000 compounds, of which about 5,700 (36%) were called active. Inconclusive results (about 24%) are left out. Calls follow the shape of the dose curve; as a rule, active = well fitted curve in the direction sought with a large enough effect; inconclusive = small, poorly fitted or top-dose-only effect, or effect the other way; inactive = no such curve, though single readings can be large or run the other way. This is one part of the list.
Labels: YES (active), NO (inactive)

| COMPOUND | ANSWER_LABEL |
| --- | --- |
| CN1CCN(C(=O)C(C(=O)c2ccc(F)cc2)n2ccccc2=O)CC1 (stereo unspecified) | NO |
| CSc1c(-c2ccccc2)nc2ccc(Cl)cc2c1C(=O)O | NO |
| Cc1ccc(C)c(/C(O)=C2/C(=O)C(=O)N(CCN3CCOCC3)C2c2ccco2)c1 (stereo unspecified) | YES |
| Cc1ccc(C)c(NC(=O)Cn2nnc(C(=O)Nc3c(C)cccc3C)c2N)c1 | NO |
| CCOc1ncccc1C(=O)OCC(=O)Nc1cc(C)ccc1C | YES |
| CCC(=O)NC(NC(=O)CC)C(Cl)Cl | NO |
| COc1cccc(/C=N/Nc2nc(N3CCCC3)nc(N3CCCC3)n2)c1O | YES |
| CCN(CC)C(=O)CSc1nc(O)cc(=O)n1CC | NO |
| Oc1cccc(-c2nc3c4c(ncn3n2)-c2ccccc2CC42CCCC2)c1 | YES |
| CC(=O)c1c(O)cc(=O)n(-c2ccccc2)c1-c1cccc2ccccc12 | NO |
| CN(Cc1ccco1)c1nc(-c2cccc(C#N)c2)nc2ccccc12 | YES |
| CC1(C)CC(=O)c2c(Cc3ccccc3)n[nH]c2C1 | NO |
| Cc1nc(-c2c(C(F)(F)F)noc2-c2ccc(O)cc2O)cs1 | YES |
| COc1cccc(-c2ccc3ncnc(N(C)Cc4ccco4)c3c2)c1 | YES |
| C[N+]1(CCOc2ccc([N+](=O)[O-])cc2)CCOCC1 | NO |
| Cc1ccc(CCN2CC(C(=O)NCCN3CCOCC3)CC2=O)cc1 (stereo unspecified) | NO |

====

target: Cytochrome P450 1A2 (Homo sapiens); assay: Cytochrome panel assay with activity outcomes; conditions: recombinant CYP, pro-luciferin dealkylation, luminescence, p450-cyp1a2; series mostly up to 57.1 µM
About 5,700 (36%) of roughly 16,000 compounds were called active. Another 24% or so got no clear call; they are omitted. Calls come from the whole dose curve; as a rule, active = well fitted curve in the direction sought with a large enough effect; inconclusive = small, poorly fitted or top-dose-only effect, or effect the other way; inactive = no such curve, though single readings can be large or run the other way. Some of the results follow.
Possible outcomes: 1 (yes) = active, 0 (no) = inactive

| MOLECULE | ANSWER_LABEL |
| --- | --- |
| COC(=O)c1[nH]c2cccc(OC)c2c1NC(=O)CN(C)CC1OCCO1 | 1 (yes) |
| CCOC(=O)C1CCCN(c2ncnc3c2cnn3-c2cccc(C)c2)C1 (centres undefined) | 1 (yes) |
| Cc1ccc2nc(-c3ccc(NC(=O)Cc4cccs4)cc3)[nH]c2c1 | 1 (yes) |
| CCCCOC(=O)c1ccc(O)cc1 | 1 (yes) |
| COc1ccc(CNc2ncnc3ccc(-c4cccnc4)cc23)c(OC)c1 | 1 (yes) |
| COc1ccc(CNc2ncnc3ccc(-c4c(C)noc4C)cc23)c(OC)c1 | 1 (yes) |
| CN(C)c1ccc(/C=N\NC(=O)c2cnc3ccccc3c2)cc1 | 1 (yes) |
| CCC(C)Nc1nc(OCC(F)(F)F)nc(OCC(F)(F)F)n1 (centres undefined) | 1 (yes) |
| COc1ccccc1CNc1ncnc2ccc(-c3cccnc3)cc12 | 1 (yes) |
| N/N=C1/c2ccccc2N[C@H]1OC(=O)Nc1ccccc1 | 1 (yes) |
| N#CCCn1c(=O)c(-c2ccccc2)nc2cnc(OCc3ccccc3)nc21 | 1 (yes) |
| N/N=C1/c2ccccc2N[C@H]1OC(=O)Nc1cccc(Cl)c1 | 1 (yes) |
| O=c1cnc2cnc(Nc3ccccc3)nc2n1CCc1ccccc1 | 1 (yes) |
| COc1cccc(-c2ccc3ncnc(NCc4ccc(OC)cc4OC)c3c2)c1 | 1 (yes) |
| CN(C)c1ncc2nc(-c3cc(F)cc(F)c3)c(=O)n(CCC#N)c2n1 | 0 (no) |
| O=C(CCC(=O)Nc1ccccc1)NNC(=O)c1cccs1 | 0 (no) |
| CCOC(=O)c1ccc(N2C(=O)CC(Nc3ccc(CCO)cc3)C2=O)cc1 (centres undefined) | 0 (no) |
| CCCCCCCCCCCC1=C(O)C(=O)C=C(O)C1=O | 0 (no) |
| CCNc1ncc2ncc(=O)n(CCc3ccccc3)c2n1 | 1 (yes) |
